procedureSummary: qHTS assay to test for compound auto fluorescence at 590 nm (red) in HepG2 cell free culture (AID 720684); also: % is scaled to controls: 0 for no effect and ±100 for the full control effect
experimentalConditions: cell-free medium autofluorescence, red 540/590 nm; series mostly up to 91.3 µM
Activity calls are given as the source filed them. Calls follow the shape of the dose curve; as a rule, active = well fitted curve in the direction sought with a large enough effect in the repeat runs; inconclusive = weak or mixed curves; inactive = flat fitted curve, though single readings scatter.
experimentalEndpoint: fluorescence, % of Rose Bengal

Please review the entries below; each comes with its answer.
CN(C)CC[C@@H](c1ccc(Cl)cc1)c1ccccn1 ... inactive
Cc1ccc([N+](=O)[O-])c(N)c1 ... inactive
O=C(O)c1cccc(Cl)c1Cl ... inactive
CC(CNC1CCCCC1)OC(=O)c1ccccc1 (stereo not given) ... 0.136% [at 18.6 µM] (inactive)

Recorded fluorescence, % of Rose Bengal of `COC(=O)c1ccc2cc(C(=O)OC)ccc2c1` , please. 0.0402% [at 18.6 µM] (inactive)

----------
procedureSummary: qHTS assay to test for compound auto fluorescence at 460 nm (blue) in HEK293 cells (AID 720678); also: % is scaled to controls: 0 for no effect and ±100 for the full control effect
experimentalConditions: blue autofluorescence 405/460 nm; series mostly up to 91.3 µM
Active and inactive are the calls of the source. The call rests on the fitted dose curve; in most records, active means well fitted curve in the direction sought with a large enough effect in the repeat runs; inconclusive means weak or mixed curves; inactive means flat fitted curve, though single readings scatter.
experimentalEndpoint: fluorescence, % of triamterene

Some compounds with recorded fluorescence, % of triamterene:
CCCCCCCCc1ccc(S(=O)(=O)O)cc1 ... inactive
c1ccc(CN(CC2=NCCN2)c2ccccc2)cc1 ... inactive
CC(C)O ... inactive
Cc1ccsc1C(=CCCN1CCC[C@@H](C(=O)O)C1)c1sccc1C ... inactive

// lookup fluorescence, % of triamterene for `O=C(O)[C@@H](O)[C@H](O)[C@H](O)[C@@H](O)C(=O)O` inactive

----------
targetDesc: Bile acid receptor (Homo sapiens) (UniProt Q96RI1)
Sequence (Q96RI1 whole entry, looked up): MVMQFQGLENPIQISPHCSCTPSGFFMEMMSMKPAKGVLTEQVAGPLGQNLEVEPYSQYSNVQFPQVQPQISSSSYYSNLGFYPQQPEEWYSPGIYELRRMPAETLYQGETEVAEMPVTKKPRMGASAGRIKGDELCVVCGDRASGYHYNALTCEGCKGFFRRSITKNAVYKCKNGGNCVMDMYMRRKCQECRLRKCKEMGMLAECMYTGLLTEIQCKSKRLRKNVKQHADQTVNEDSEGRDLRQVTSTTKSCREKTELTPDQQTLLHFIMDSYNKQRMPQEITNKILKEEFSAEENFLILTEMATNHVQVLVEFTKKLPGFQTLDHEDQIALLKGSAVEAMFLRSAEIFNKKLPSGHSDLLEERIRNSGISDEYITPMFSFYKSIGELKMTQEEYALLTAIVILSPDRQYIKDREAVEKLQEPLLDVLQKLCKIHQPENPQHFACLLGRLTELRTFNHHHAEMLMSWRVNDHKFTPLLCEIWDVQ
procedureSummary: qHTS assay to identify small molecule agonists of the farnesoid-X-receptor (FXR) signaling pathway (AID 743220); also: % is scaled to controls: 0 for no effect and ±100 for the full control effect
experimentalConditions: HEK293T FXR-UAS-bla, beta-lactamase FRET ratio, 16 h; series mostly up to 62.6 µM
Results filed as inconclusive are left out. Activity calls are given as the source filed them. Calls come from the whole dose curve; as a rule, active = well fitted activation curve with a large enough effect in the signal ratio in the repeat runs (not every such curve was filed as active); inconclusive = weak or mixed curves, or effect the other way; inactive = flat fitted curve, though single readings scatter; the % refers to the signal ratio.
experimentalEndpoint: outcome

COc1cc(N)c(Cl)cc1C(=O)NC1CCN(Cc2ccccc2)CC1 ... inactive
CCC/C=C/CO ... inactive
FC(F)(F)C(Cl)(Cl)Cl ... inactive

----------
procedureSummary: qHTS assay to identify small molecule antagonists of the thyroid receptor (TR) signaling pathway - cell viability counter screen (AID 743064); also: % is scaled to controls: 0 for no effect and ±100 for the full control effect; nearly all actives have a fitted effect of over 50% in size
experimentalConditions: GH3.TRE-Luc viability, CellTiter-Fluor, 24 h; series mostly up to 70.3 µM
Records with an inconclusive call do not appear. Active and inactive are the calls of the source. Calls come from the whole dose curve; as a rule, active = well fitted cell-killing curve with a large enough effect in the repeat runs; inconclusive = weak or mixed curves, or effect the other way; inactive = no such curve, though single readings can be large or run the other way.
experimentalEndpoint: outcome

CC(C)C[C@H](NC(=O)OCC1c2ccccc2-c2ccccc21)C(=O)O ... inactive
O=C(O)[C@@H](O)[C@H](O)[C@H](O)[C@@H](O)C(=O)O ... inactive
CCOC(=O)C(Br)c1ccccc1 (stereo not drawn) ... inactive

----------
procedureSummary: qHTS assay for identifying genotoxic compounds that show differential cytotoxicity against isogenic chicken DT40 cell lines with known DNA damage response pathways - wild type cell line (AID 743012); also: nearly all actives have a fitted effect of over 60% in size
experimentalConditions: DT40 wild type chicken cells viability, CellTiter-Glo, 40 h; series mostly up to 68.4 µM
Inconclusive results are not listed. Active and inactive are the calls of the source. Calls come from the whole dose curve; as a rule, active = well fitted cell-killing curve with a large enough effect in the repeat runs; inconclusive = weak or mixed curves, or effect the other way; inactive = no such curve, though single readings can be large or run the other way.
Outcome (select one): yes (active), no (inactive)

Cc1cc2nc(N)sc2cc1C ... yes

Query: recorded result category for `c1ccc(CN(CC2=NCCN2)c2ccccc2)cc1` in this test yes

And what about the molecule `CC(C)C1=CC2=CC[C@@H]3[C@](C)(CCC[C@@]3(C)C(=O)O)[C@H]2CC1` ? no

Also need `NC/C=C/C(=O)O` , thanks. no

Now the same for `COc1cc(Cl)ccc1Cl` no

Then what about the molecule CCOC(=O)C1CC(=O)C(=C(O)C2CC2)C(=O)C1 (centres undefined) ? no

And then CC(=O)N(CC(O)CN(C(C)=O)c1c(I)c(C(=O)NCC(O)CO)c(I)c(C(=O)NCC(O)CO)c1I)c1c(I)c(C(=O)NCC(O)CO)c(I)c(C(=O)NCC(O)CO)c1I (centres undefined) , what is it? no

What do you have for `Cc1nc(-c2ccccn2)ncc1C(=O)Nn1cc(C)c2cc(F)ccc21` ? yes

And `Oc1ccccc1F` ? no

Now consider `C=CCc1cc(OC)c(O)c(C(=O)NCCO)c1` . no

Repeat with `OCC(CBr)(CBr)CBr` no

Next entry: `Cc1c(-c2ccccc2)oc2c(C(=O)OCCN3CCCCC3)cccc2c1=O` no

Again, but for `ClC(Cl)Cl` no
